testSystem: recombinant human GR (Homo sapiens, UniProt P04150)
experiment: Human Glucocorticoid Receptor (GR) Assay, fluorescence polarization
testConditions: GS Red tracer, incubated 2 h at r.t., XLfit model 205, read-out: GRhuFL_FP_v2 Mean IC50
valueKind: pIC50
Note: pIC50 values are expressed as the negative base-10 logarithm of concentration in M.

Examples with their reported pIC50 follow.
{"compound": "C[C@H](NC(=O)CCl)[C@H](Oc1ccc2c(cnn2-c2ccc(F)cc2)c1)c1ccccc1", "valueKind": "pIC50", "measurement": 8.62}
{"compound": "COc1cccc([C@@H](Oc2ccc3c(cnn3-c3ccc(F)cc3)c2)[C@H](C)NC(=O)c2ccco2)c1", "valueKind": "pIC50", "measurement": 8.42}
{"compound": "COc1cccc([C@@H](Oc2ccc3c(cnn3-c3ccc(F)cc3)c2)[C@H](C)NC(=O)C2CCN(C(=O)OC(C)(C)C)C2)c1 (stereo partly shown)", "valueKind": "pIC50", "measurement": 8.28}

# evaluate next
Which pIC50 is reported for this compound? `COc1cccc([C@@H](Oc2ccc3c(cnn3-c3ccc(F)cc3)c2)[C@H](C)NC(=O)c2cn(C)cn2)c1`
8.33

---

testSystem: recombinant human GR (Homo sapiens)
experiment: Human Glucocorticoid Receptor (GR) Assay, fluorescence polarization
testConditions: GS Red tracer, incubated 2 h at r.t., XLfit model 205, read-out: GRhuFL_FP_v2 Mean IC50
Protocol: Human Glucocorticoid Receptor (GR) Assay The assay is based on a commercial kit from Panvera/Invitrogen (Part number P2893). The assay technology is fluorescence polarization. […] The GR and Stabilizing Peptide reagents are stored at −70° C. while the GS Red is stored at −20° C. Also included in the kit are 1M DTT (Panvera, Part number P2325, stored at −20° C.) and GR Screening buffer 10× (Panvera, Part number P2814, stored at −70° C. initially but once thawed stored at r.t.). […]
Documented pIC50 across a set of compounds
Note: pIC50 values are expressed as the negative base-10 logarithm of concentration in M.

{"compound": "Cc1cnc(C(=O)N[C@@H](C)[C@H](Oc2ccc3c(cnn3-c3ccc(F)cc3)c2)c2cc(F)ccc2C)s1", "pIC50": 8.23}

# evaluate next
Which pIC50 is reported for this compound? `COc1cccc([C@@H](Oc2ccc3c(cnn3-c3ccc(F)cc3)c2)[C@H](C)NC(=O)c2nccs2)c1`
8.51

---

testSystem: recombinant human GR (Homo sapiens)
Sequence (P04150 1-777): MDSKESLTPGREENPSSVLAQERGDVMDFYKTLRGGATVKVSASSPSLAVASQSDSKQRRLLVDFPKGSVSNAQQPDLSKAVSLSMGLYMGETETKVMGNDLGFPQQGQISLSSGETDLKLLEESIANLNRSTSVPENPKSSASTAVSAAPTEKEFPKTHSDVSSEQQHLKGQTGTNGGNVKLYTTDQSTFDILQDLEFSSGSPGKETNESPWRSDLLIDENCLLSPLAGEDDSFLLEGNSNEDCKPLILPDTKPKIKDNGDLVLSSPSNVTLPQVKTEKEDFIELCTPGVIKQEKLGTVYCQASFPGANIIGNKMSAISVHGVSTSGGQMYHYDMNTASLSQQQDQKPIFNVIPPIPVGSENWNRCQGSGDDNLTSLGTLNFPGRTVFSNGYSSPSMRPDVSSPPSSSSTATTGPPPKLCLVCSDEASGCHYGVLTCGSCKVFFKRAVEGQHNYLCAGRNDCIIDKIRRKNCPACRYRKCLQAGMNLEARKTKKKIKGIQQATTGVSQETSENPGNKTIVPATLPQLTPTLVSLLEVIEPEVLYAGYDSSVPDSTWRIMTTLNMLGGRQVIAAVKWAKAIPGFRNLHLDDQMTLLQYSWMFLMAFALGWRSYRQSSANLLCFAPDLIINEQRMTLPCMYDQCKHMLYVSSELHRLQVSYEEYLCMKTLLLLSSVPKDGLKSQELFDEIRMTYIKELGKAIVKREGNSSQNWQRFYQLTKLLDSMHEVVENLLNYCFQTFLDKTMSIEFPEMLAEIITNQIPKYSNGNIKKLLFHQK
experiment: Human Glucocorticoid Receptor (GR) Assay, fluorescence polarization
testConditions: GS Red tracer, incubated 2 h at r.t., XLfit model 205, read-out: GRhuFL_FP_v2 Mean IC50
Documented pIC50 across a set of compounds
Note: pIC50 values are expressed as the negative base-10 logarithm of concentration in M.

Examples with their reported pIC50 follow.
{"compound": "C[C@H](NC(=O)C(C)(C)CO)[C@H](Oc1ccc2c(cnn2-c2ccc(F)cc2)c1)c1cccc(Cl)c1", "valueKind": "pIC50", "measurement": 8.29}
{"compound": "Cc1ccc(C)c([C@@H](Oc2ccc3c(cnn3-c3ccc(F)cc3)c2)[C@H](C)NC(=O)C(C)(C)CO)c1", "valueKind": "pIC50", "measurement": 8.07}
{"compound": "COc1cccc([C@@H](Oc2ccc3c(cnn3-c3ccc(F)cc3)c2)[C@H](C)NC(=O)CNC(C)=O)c1", "valueKind": "pIC50", "measurement": 7.92}

Which pIC50 is reported for this compound? `C[C@H](NC(=O)C(C)(C)C)[C@H](Oc1ccc2c(cnn2-c2ccc(F)cc2)c1)c1ccccc1Cl`
8.62

Which pIC50 is reported for this compound? `COc1cccc([C@@H](Oc2ccc3c(cnn3-c3ccc(F)cc3)c2)[C@H](C)NC(=O)C(=O)NC(C)(C)C)c1`
8.28

Which pIC50 is reported for this compound? `C[C@H](NC(=O)C(F)(F)F)[C@@H](Cc1ccccc1)Oc1ccc2c(cnn2-c2ccc(F)cc2)c1`
8.43

Which pIC50 is reported for this compound? `COc1cccc([C@@H](Oc2ccc3c(cnn3-c3ccc(Cl)cc3)c2)[C@H](C)NC(=O)C(F)(F)F)c1`
8.54

Which pIC50 is reported for this compound? `COc1cccc([C@@H](Oc2ccc3c(cnn3-c3ccc(F)cc3)c2)[C@H](C)NC(=O)c2ccsc2)c1`
8.44

Which pIC50 is reported for this compound? `CCCC(=O)N[C@@H](C)[C@H](Oc1ccc2c(cnn2-c2ccc(F)cc2)c1)c1ccccc1`
8.59

Which pIC50 is reported for this compound? `CCC(=O)N[C@@H](C)[C@H](Oc1ccc2c(cnn2-c2ccc(F)cc2)c1)c1ccc(C(F)(F)F)cc1`
8.48

Which pIC50 is reported for this compound? `COc1cccc([C@@H](Oc2ccc3c(cnn3-c3ccc(F)cc3)c2)[C@H](C)NC(=O)c2ccccn2)c1`
8.36

Which pIC50 is reported for this compound? `COc1c(C)cc([C@@H](Oc2ccc3c(cnn3-c3ccc(F)cc3)c2)[C@H](C)NC(=O)C2(C)CC2)cc1C`
8.36

Which pIC50 is reported for this compound? `C[C@H](NC(=O)C(C)(C)CO)[C@H](Oc1ccc2c(cnn2-c2ccc(F)cc2)c1)c1cccc(F)c1`
8.12

Which pIC50 is reported for this compound? `CCc1cccc([C@@H](Oc2ccc3c(cnn3-c3ccc(F)cc3)c2)[C@H](C)NC(=O)CO)c1`
8.49

---

testSystem: recombinant human GR (Homo sapiens)
Construct: purchased Panvera/Invitrogen P2812 (kit P2893)
experiment: Human Glucocorticoid Receptor (GR) Assay, fluorescence polarization
Format: binding
testConditions: GS Red tracer, incubated 2 h at r.t., XLfit model 205, read-out: GRhuFL_FP_v2 Mean IC50
Documented IC50 across a set of compounds
The figure you give is taken to be in nM; do not add the unit.

{"smilesStructure": "COc1cccc([C@@H](Oc2ccc3c(cnn3-c3ccc(F)cc3)c2)[C@H](C)NC(=O)c2ccc(C(F)(F)F)cc2)c1", "testSystem": "recombinant human GR (Homo sapiens)", "unitsSymbol": "nM", "measurement": 5.8}
{"smilesStructure": "COc1c(C)cc([C@@H](Oc2ccc3c(cnn3-c3ccc(F)cc3)c2)[C@H](C)NC(=O)c2ncc(C)s2)cc1C", "testSystem": "recombinant human GR (Homo sapiens)", "unitsSymbol": "nM", "measurement": 5.4}
{"smilesStructure": "Cc1cc(F)ccc1[C@@H](Oc1ccc2c(cnn2-c2ccc(F)cc2)c1)[C@H](C)NC(=O)C1(C)CC1", "testSystem": "recombinant human GR (Homo sapiens)", "unitsSymbol": "nM", "measurement": 2.8}
{"smilesStructure": "COc1cccc([C@@H](Oc2ccc3c(cnn3-c3ccc(F)cc3)c2)[C@H](C)NC(=O)C(=O)OC(C)C)c1", "testSystem": "recombinant human GR (Homo sapiens)", "unitsSymbol": "nM", "measurement": 2.6}

Which IC50 is reported for this compound? `Cc1cnc(C(=O)N[C@@H](C)[C@H](Oc2ccc3c(cnn3-c3ccc(F)cc3)c2)c2ccc3c(c2)OCO3)s1`
5.2

Which IC50 is reported for this compound? `CCCc1ccc([C@@H](Oc2ccc3c(cnn3-c3ccc(F)cc3)c2)[C@H](C)NC(=O)C(C)(C)C)cc1`
7.3

Which IC50 is reported for this compound? `COCc1ccc(C(=O)N[C@@H](C)[C@H](Oc2ccc3c(cnn3-c3ccc(F)cc3)c2)c2cccc(OC)c2)s1`
3.1
